B1: DVL3 (parent)
chain: FCADNPSELPPPMERTGGIGDSRP

variants of: B1; assay: protein stability index of a GFP-peptide fusion (GPS, HEK-293T) (PSI 1-6); higher = more stable; conditions: c terminus: a fixed tail appended;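 further: lentivirally expressed fusions sorted by FACS into six bins by GFP to DsRed ratio, PSI derived from sequencing read proportions per bin multiplied by bin number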

- Variant Name: "M13R"
  protein stability index: 4.2
- Variant Name: "L9M"
  protein stability index: 4.34
- Variant Name: "G18Y"
  protein stability index: 3.38
- Variant Name: "F1P"
  protein stability index: 5.44
- Variant Name: "P6F"
  protein stability index: 4.38
- Variant Name: "R23N"
  protein stability index: 5.22
- Variant Name: "S22T"
  protein stability index: 4.7
- Variant Name: "G17F"
  protein stability index: 3.79
- Variant Name: "N5K"
  protein stability index: 4.29
- Variant Name: "E14C"
  protein stability index: 3.68
- Variant Name: "F1W"
  protein stability index: 4.26
- Variant Name: "S22H"
  protein stability index: 4.34
- Variant Name: "T16K"
  protein stability index: 4.29
- Variant Name: "D4V"
  protein stability index: 3.79
- Variant Name: "P24Q"
  protein stability index: 4.58
- Variant Name: "S7L"
  protein stability index: 4.57
- Variant Name: "S7V"
  protein stability index: 4.14
- Variant Name: "G20N"
  protein stability index: 4.54
- Variant Name: "P6I"
  protein stability index: 3.73
- Variant Name: "P10T"
  protein stability index: 4.61
- Variant Name: "R15G"
  protein stability index: 4.56
- Variant Name: "L9N"
  protein stability index: 5.1
